system: Plasmodium falciparum Sir2 (PF13_0152, Sir2A); assay: pfSir2 binders on small-molecule microarrays, primary screen, biochemical, small-molecule microarray, 635 nm fluorescence (AID 1098); conditions: small-molecule microarray binding, fluorescence 635 nm; higher = more signal;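 note: score merges spot fluorescence intensity with its signal-to-noise ratio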
Label true (1) when composite z-score is at or above 0.6; anything below gets false (0).

Use these answered entries as a reference point.
- MOLECULE: "COc1cc(C(O)C2C=CC3C(=O)NC(=O)C3N2Nc2ccccn2)cc(OC)c1OC (stereo not given)"
  EXPERIMENTAL TARGET: "Plasmodium falciparum Sir2 (PF13_0152, Sir2A)"
  QUALITATIVE LABEL: "true (1)"
- MOLECULE: "CC(=O)NCCCC[C@@H]1NC(=O)[C@@H]2C[C@H](C(=O)NCCCCCNC(=O)CS)[C@H](c3cccc(OCCO)c3)N2C1=O"
  EXPERIMENTAL TARGET: "Plasmodium falciparum Sir2 (PF13_0152, Sir2A)"
  QUALITATIVE LABEL: "true (1)"
- MOLECULE: "NC(=O)[C@@H]1[C@H]2C(=O)O[C@H](c3ccccc3)[C@H](c3ccccc3)N2[C@H](c2ccc(O)cc2)[C@@]12C(=O)Nc1ccccc12"
  EXPERIMENTAL TARGET: "Plasmodium falciparum Sir2 (PF13_0152, Sir2A)"
  QUALITATIVE LABEL: "false (0)"
- MOLECULE: "COCCOC(=O)N1C(=O)[C@@]2(c3cc(C#CCC(C(=O)OC)C(=O)OC)ccc31)[C@H](C(=O)N1CCN(c3ncccn3)CC1)[C@H]1C(=O)O[C@H](c3ccccc3)[C@H](c3ccccc3)N1[C@@H]2c1ccccc1OCCO"
  EXPERIMENTAL TARGET: "Plasmodium falciparum Sir2 (PF13_0152, Sir2A)"
  QUALITATIVE LABEL: "true (1)"

Incoming: Entry `COCCCNC(=O)[C@@]1(C)c2ccccc2C(=O)N(C(C)C)[C@H]1c1ccc(CO)cc1` : is its composite z-score no less than 0.6?
Outgoing: false (0)

---

test: HepG2 liver cancer cell viability effects, profiling panel, resazurin fluorescence, 24 h, PK04 Diversity Set (AID 1172); settings: higher = more signal; note: test concentration not given here
z-score by entry:
API doc: respond with a numeric literal and nothing else, no unit.

- COMPOUND: "CCOC(=O)C1=CC[C@@H](c2ccccc2)N(S(=O)(=O)c2ccc(C)cc2)[C@H]1c1ccccc1C"
  RESULT VALUE: 1.81
- COMPOUND: "Cc1ccc([C@@H]2C[C@@H](Sc3ccccc3)[C@H](C(=O)O)CN2S(=O)(=O)c2ccc(C)cc2)cc1"
  RESULT VALUE: 0.391
- COMPOUND: "[N-]=[N+]=Nc1ccccc1[C@H]1OC(c2ccc(OCCCO)cc2)=N[C@@]1(CCS(=O)(=O)c1ccccc1)C(=O)NCC(O)CO (stereo partly drawn)"
  RESULT VALUE: -0.14

Incoming: Sample `CCOC(=O)[C@H]1C/C=C/C[C@H](C(=O)OCC)C(=O)O[C@H]2[C@@H](OC)O[C@H](CO)[C@@H](OC(=O)c3c(OC)cccc3OC)[C@@H]2OC1=O` — what was its z-score?
Outgoing: -3.51

Incoming: How about this compound: COc1cc2c(cc1O)C(c1cccs1)N(C)CC2 (stereo not drawn)
Outgoing: -0.493

Source listed as PubChem BioAssay.
